# studyTarget: T1, human IL-15Rα (human, UniProt Q13261 31-205, limits assumed)
# T1 construct: also called hIL-15Rα; IL-15 receptor alpha
# T1 sequence (Q13261 31-205 limits assumed): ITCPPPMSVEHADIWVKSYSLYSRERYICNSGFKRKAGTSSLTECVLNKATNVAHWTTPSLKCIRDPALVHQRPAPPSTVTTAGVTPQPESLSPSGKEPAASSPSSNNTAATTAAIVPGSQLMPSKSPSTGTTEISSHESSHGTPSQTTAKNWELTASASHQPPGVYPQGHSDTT
# protocolText: SPR, steady state
pKd: −log10 of the molar value.
parameter: pKd

[[record]]
binder = "hIL-15 V49R/N4Q (ligand) NWVQVISDLKKIEDLIQSMHIDATLYTESDVHPSCKVTAMKCFLLELQRISLESGDASIHDTVENLIILANNSLSSNGNVTESGCKECEELEEKNIKEFLQSFVHIVQMFINTGGGGSGHHHHHHHHGGGLNDIFEAQKIEWHE"
assayresult = 7.23

[[record]]
binder = "hIL-15 V49R/K11N (ligand) NWVNVISDLKNIEDLIQSMHIDATLYTESDVHPSCKVTAMKCFLLELQRISLESGDASIHDTVENLIILANNSLSSNGNVTESGCKECEELEEKNIKEFLQSFVHIVQMFINTGGGGSGHHHHHHHHGGGLNDIFEAQKIEWHE"
assayresult = 6.66

